Task for the reader: assign each of the following variants its reported protein stability index.
B1: STX5 (parent)
chain: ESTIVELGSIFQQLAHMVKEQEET

- Variants of: B1
- assay text: protein stability index of a GFP-peptide fusion (GPS, HEK-293T) (PSI 1-6); higher = more stable;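 further: lentivirally expressed fusions sorted by FACS into six bins by GFP to DsRed ratio, PSI derived from sequencing read proportions per bin multiplied by bin number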
- test parameters: c terminus: a fixed tail appended
Output spec: single numeric token, no unit.

query: Fill in: protein stability index of `I10H` is ___
result: 4.5

query: Recorded protein stability index for `Q12N` , please?
result: 2.99

query: If you can, please state the reported protein stability index value of `E20S` .
result: 2.08

query: I would be grateful if you could share the reported protein stability index for `A15I` .
result: 1.53

query: # lookup: protein stability index of `L7F`
result: 3.03

query: # lookup: protein stability index of `Q13A`
result: 2.4

query: Returns the measured protein stability index for the input variant. Input: `V18D`
result: 5.09

query: Which value of protein stability index has been reported for `A15Y` in the records?
result: 1.74

query: Consider the variant `H16M` and give its measured protein stability index.
result: 3

query: // query protein stability index value for entry `Q13F`
result: 1.57

query: For the variant shown here, `E20P` , give the reported protein stability index.
result: 1.61

query: I am curious: what protein stability index value has been reported for `L7K` ?
result: 5.07

query: Request the reported protein stability index associated with `L14A`
result: 4.31

query: Bench note: what protein stability index did `G8Q` show?
result: 1.68

query: State the recorded protein stability index for this entry: `A15D`
result: 4.28

query: Recorded protein stability index of `E6K` , please.
result: 2.54

query: Can you share its protein stability index? I mean this variant: `F11M`
result: 2.98

query: Please report the recorded protein stability index for `I10Q` .
result: 4.27

query: Form field: reported protein stability index of `Q21R`
result: 1.36

query: // returns reported protein stability index for input `V18H`
result: 3.73

query: For the variant `E23T` , what protein stability index is on record?
result: 1.32

query: Record request: protein stability index value, item `I4P`
result: 2.93

query: Requested field: protein stability index. Item: `I4C`
result: 2.83

query: Need protein stability index, item `I4E`
result: 2.8

query: Which protein stability index is listed for `T3Q` ?
result: 3.88

query: Any idea what protein stability index was measured for `H16L` ?
result: 2.75

query: # query: protein stability index of entry `F11S`
result: 4.27

query: Param item = `E22Q` ; retrieve measured protein stability index.
result: 2.65

query: # query: protein stability index of entry `Q12K`
result: 1.79

query: I'd like to know its protein stability index. The variant in question is `E1P`
result: 2.71

query: So what's the measured protein stability index for this one? `E20T`
result: 1.18

query: Field request: protein stability index | item: `I4G`
result: 2.42

query: Given the variant `Q12S` , what is its reported protein stability index?
result: 2.1

query: Which protein stability index is listed for `I4T` ?
result: 2.73

query: protein stability index lookup needed for `K19R` , thanks.
result: 1.85

query: Give its protein stability index value. Item: `E20G`
result: 2.02

query: I would be grateful if you could share the reported protein stability index for `E22S` .
result: 2.44

query: Given `I10A` , state its recorded protein stability index.
result: 4.32

query: Entry `M17A` has what protein stability index?
result: 2.83

query: Recorded protein stability index of `E1R` , please.
result: 2.27

query: Fill blank: measured protein stability index of the variant `L14W` is ____.
result: 3.17

query: If you can, please state the reported protein stability index value of `E1T` .
result: 2.26

query: Which protein stability index is listed for `E1C` ?
result: 2.31

query: Look up protein stability index: `T24E`
result: 2.12

query: Record request: protein stability index value, item `G8E`
result: 3.02

query: Look up protein stability index for this variant: `E1F`
result: 2.08

query: Requested field: protein stability index. Item: `V18A`
result: 3.27

query: protein stability index lookup needed for `K19E` , thanks.
result: 2.92

query: Need protein stability index of `V18K` , thanks.
result: 4.16

query: If you can, please state the reported protein stability index value of `E20D` .
result: 2.78

query: So what's the measured protein stability index for this one? `A15M`
result: 1.74

query: # input variant: `T24Y` ; wanted: its protein stability index
result: 2.29

query: Entry `T24R` has what protein stability index?
result: 2.12

query: Which protein stability index is listed for `E1L` ?
result: 2.6

query: Field request: protein stability index | item: `Q21A`
result: 1.67

query: Quick check: protein stability index of `G8C` ?
result: 2.33

query: Please look up its protein stability index: `V18T`
result: 3.45

query: Please give the measured protein stability index for this variant: `F11Q`
result: 3.48

query: Would you kindly share the measured protein stability index for `K19N` ?
result: 2.95

query: What does the data say about its protein stability index? Entry: `V18M`
result: 2.79

query: GET /values?readout=protein stability index&item= `E23C`
result: 1.83

query: Item under review: `Q13V` . Reported protein stability index?
result: 2.16

query: Fill in the blank: the reported protein stability index of `S9V` is ____.
result: 1.8

query: Which protein stability index is reported for this variant? `E20A`
result: 2.19

query: What protein stability index value was documented for this variant, `L14E` ?
result: 5.33

query: Quick one: protein stability index of `Q21P` ?
result: 3.29

query: Form field: reported protein stability index of `E1W`
result: 1.61

query: Data request, read-out protein stability index, for `F11C`
result: 3.62

query: Which protein stability index value is on record for `Q21I` ?
result: 1.64

query: Bench note: what protein stability index did `H16G` show?
result: 2.13

query: Fill in: protein stability index of `V5Y` is ___
result: 2.28

query: Data request, read-out protein stability index, for `Q21H`
result: 1.97

query: Dear colleague, I am looking for the recorded protein stability index of the following variant: `L14H`
result: 4.11

query: What value of protein stability index has been recorded for this entry: `G8D`
result: 2.28

query: Given the entry `G8I` , report its measured protein stability index.
result: 2.24

query: # get_value(readout='protein stability index', item= `G8S` )
result: 2.79

query: I would be grateful if you could share the reported protein stability index for `Q21T` .
result: 2.88

query: Request the reported protein stability index associated with `E22A`
result: 2.75

query: # get_value(readout='protein stability index', item= `I4M` )
result: 1.57

query: Look at this variant and give its reported protein stability index. `F11K`
result: 4.85

query: Fill blank: measured protein stability index of the variant `E22Y` is ____.
result: 1.39

query: I'd like to know its protein stability index. The variant in question is `Q13S`
result: 2.95

query: Any idea what protein stability index was measured for `E20M` ?
result: 4.03

query: Please report the recorded protein stability index for `F11H` .
result: 5.76

query: // lookup protein stability index for `L14T`
result: 4.78

query: Data request, read-out protein stability index, for `S9N`
result: 2.26

query: Request the reported protein stability index associated with `I4V`
result: 3.59

query: Fill in the blank: the reported protein stability index of `E22I` is ____.
result: 2.7

query: Look at this variant and give its reported protein stability index. `I10Y`
result: 3.49

query: Query: protein stability index; subject: `G8K`
result: 1.94

query: Please look up its protein stability index: `T24G`
result: 1.97
